The values you see were collected from PubChem BioAssay AID1159580.

The following molecules are listed with their measured normalized growth values.
Assay: chemical genetic growth profiling, strain panel (AID 1159580);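 note: tested at 20 µM; growth read once vehicle control cultures reached saturation at 30 °C; 1 = growth at the plate median or of vehicle wells; lower values mean less growth of the strain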
Conditions: S. cerevisiae deletion strains, growth OD, locus YHR027C, strain rpn1, stronger effect = lower value
Hit rate of the full screen: of about 5,500 compounds, about 2,000 (36%) were called active. Another 18% or so got no clear call; they are omitted. This is one part of the list.

Observe how each entry below is paired with its result.
Input: Item CN(C)CCOC(=O)C(c1ccccc1)C1(O)CCCC1 (stereo not drawn) has what recorded normalized growth?
Output: 1.01 (inactive)

Input: Item CCCCCC1C(=O)CCC1CC(=O)O (stereo not drawn) has what recorded normalized growth?
Output: 0.98 (inactive)

Input: Item O=c1cc(-c2ccc(O)cc2)oc2cc(O)cc(O)c12 has what recorded normalized growth?
Output: 0.997 (inactive)

Input: Item O=c1[nH]cnc2[nH]ncc12 has what recorded normalized growth?
Output: 1 (inactive)

Input: Item Cc1cc(=O)oc2c(O)c(O)ccc12 has what recorded normalized growth?
Output: 0.973 (inactive)

Continuing:
Input: Item CN(C)C(=O)Nc1ccc(Cl)c(Cl)c1 has what recorded normalized growth?
Output: 1.02 (inactive)

Input: Item CC(=O)O[C@H]1C[C@@H](OC(C)=O)C(C)(C)C2CC(=O)[C@]3(C)C(CC[C@@]4(C)[C@H](c5ccoc5)OC(=O)[C@H]5O[C@]543)[C@]21C (stereo partly drawn) has what recorded normalized growth?
Output: 0.994 (inactive)

###

Test: chemical genetic growth profiling, strain panel (AID 1159580);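 note: tested at 20 µM; growth read once vehicle control cultures reached saturation at 30 °C; 1 = growth at the plate median or of vehicle wells; lower values mean less growth of the strain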
Details: S. cerevisiae deletion strains, growth OD, locus YNL298W, strain CLA4, stronger effect = lower value
The campaign covered roughly 5,500 compounds. About 2,000 (36%) were called active. Roughly 18% stayed inconclusive and do not appear here. The list shows a part of the results.
Consider the cut-off 1. If the recorded normalized growth is strictly smaller, the label is Y; if not, the label is N.

Past entries and their recorded results:
Input: Decide: normalized growth of CCCCCC1C(=O)CCC1CC(=O)O (stereo not given) strictly below 1?
Output: Y

Input: Decide: normalized growth of CCCCCC1C(=O)CCC1CC(=O)OC (stereo not given) strictly below 1?
Output: Y

Input: Decide: normalized growth of C[C@H](CCC(=O)O)[C@H]1CCC2C3C(CC[C@@]21C)[C@@]1(C)CC[C@@H](O)C[C@H]1C[C@@H]3O (stereo not given in full) strictly below 1?
Output: Y

Input: Decide: normalized growth of CC1=C2[C@H]3OC(=O)[C@@H](C)[C@@H]3CC[C@@]2(C)C=CC1=O strictly below 1?
Output: N

Below: the item to evaluate.
Input: Decide: normalized growth of Clc1ccc2c(c1)C(N1CCNCC1)=Nc1ccccc1O2 strictly below 1?
Output: Y

###

Test: chemical genetic growth profiling, strain panel (AID 1159580);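 note: tested at 20 µM; growth read once vehicle control cultures reached saturation at 30 °C; 1 = growth at the plate median or of vehicle wells; lower values mean less growth of the strain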
Details: S. cerevisiae deletion strains, growth OD, locus YFR010W, strain ubp6, stronger effect = lower value
In all, about 5,500 compounds went through this assay and about 2,000 (36%) were called active. Inconclusive results (about 18%) are left out. The list shows a part of the results.
The following molecules are listed with their measured normalized growth values.
Answer field: number only, no words.

Observe how each entry below is paired with its result.
Input: Item C[C@@H]1O[C@@H](O[C@H]2C[C@@H](O)[C@]3(CO)C4C(CC[C@]3(O)C2)[C@@]2(O)CC[C@H](C3=CC(=O)OC3)[C@@]2(C)C[C@H]4O)[C@H](O)[C@H](O)[C@H]1O (some centres undefined) has what recorded normalized growth?
Output: 1.03

Input: Item O=c1cc(-c2cc(O)c(O)c(O)c2)oc2cc(O)cc(O)c12 has what recorded normalized growth?
Output: 0.942

Input: Item Cc1cc(O)c(C=O)c2c1C(=O)Oc1c(COC(=O)/C=C/C(=O)O)c(O)c(C(=O)O)c(C)c1O2 has what recorded normalized growth?
Output: 0.873

Input: Item Nc1cc(C(Cl)=C(Cl)Cl)c(S(N)(=O)=O)cc1S(N)(=O)=O has what recorded normalized growth?
Output: 1.02

Input: Item Nc1cc(-c2ccncc2)c[nH]c1=O has what recorded normalized growth?
Output: 0.863

Input: Item CC1=C2[C@H]3OC(=O)[C@@H](C)[C@@H]3CC[C@@]2(C)C=CC1=O has what recorded normalized growth?
Output: 0.953

Continuing:
Input: Item O=C(O)CCC(=O)Nc1ccc(S(=O)(=O)Nc2nccs2)cc1 has what recorded normalized growth?
Output: 1

Input: Item O=C(O)c1ccccc1C(=O)Nc1ccc(S(=O)(=O)Nc2nccs2)cc1 has what recorded normalized growth?
Output: 0.999

Input: Item Cc1ncc([N+](=O)[O-])n1CC(C)O (centres undefined) has what recorded normalized growth?
Output: 0.969
